Cited source for all entries: patent US20230219886A1

System: HCT-116 CRC cells
Assay: MTT cell viability assay, HCT-116
Type: cell-based, human
Conditions: Homo sapiens, HCT-116, 72 h
Readout: IC50 (µM)
API: value field is a number in µM; no unit string.

Below: 2 compounds and their reported IC50.
compound="COc1ccc2c(c1)c(CC(=O)[Se]Cc1ccccc1)c(C)n2C(=O)c1ccc(Cl)cc1 [Compound 5c]" assayed_system="HCT-116 CRC cells" endpoint_value=5.5
compound="CC(=O)Oc1ccccc1C(=O)[Se]Cc1ccccc1 [Compound 1c]" assayed_system="HCT-116 CRC cells" endpoint_value=8.2

--- query ---
IN: Record request: IC50 value, item CC1=C(CC(=O)[Se]Cc2ccccc2)c2cc(F)ccc2/C1=C\c1ccc([S+](C)[O-])cc1 (stereo not drawn) [Compound 6c]
OUT: 7
